biological target: CDK6 CCND1 (human) (UniProt Q00534+P24385); test: radiometric filter-binding kinase assay, Kinase HotSpot; details: compound 0.5 µM; ATP 10 µM
Sequence (P24385 whole entry, looked up): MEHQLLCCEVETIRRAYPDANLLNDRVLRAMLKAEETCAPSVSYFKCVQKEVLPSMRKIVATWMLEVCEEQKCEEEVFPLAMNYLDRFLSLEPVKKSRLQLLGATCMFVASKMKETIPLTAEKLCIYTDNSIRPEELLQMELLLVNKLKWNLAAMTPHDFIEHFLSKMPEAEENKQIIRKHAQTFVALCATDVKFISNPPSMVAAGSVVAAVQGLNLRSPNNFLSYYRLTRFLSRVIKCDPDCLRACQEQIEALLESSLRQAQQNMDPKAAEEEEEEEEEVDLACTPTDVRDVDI
Sequence (Q00534 whole entry, looked up): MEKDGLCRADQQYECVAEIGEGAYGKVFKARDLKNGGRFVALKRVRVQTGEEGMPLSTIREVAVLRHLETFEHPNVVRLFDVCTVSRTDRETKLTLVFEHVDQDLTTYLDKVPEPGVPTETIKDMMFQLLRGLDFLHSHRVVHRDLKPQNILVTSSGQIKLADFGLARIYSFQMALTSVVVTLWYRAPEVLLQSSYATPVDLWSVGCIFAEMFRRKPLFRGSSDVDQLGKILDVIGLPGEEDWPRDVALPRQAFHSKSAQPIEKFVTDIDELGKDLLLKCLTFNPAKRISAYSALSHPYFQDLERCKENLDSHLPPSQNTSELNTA
measuredQuantity: residual activity (%)

compound	measuredQuantity	recordedNumber
Cc1ccc(S(=O)(=O)/C=C/C#N)cc1	residual activity	91.4
c1ccc(-c2n[nH]cc2-c2ccnc3ccccc23)nc1	residual activity	91.1
Oc1cccc(-c2nc(N3CCOCC3)c3oc4ncccc4c3n2)c1	residual activity	95.6
Nc1ncnc2[nH]nc(Nc3ccc(F)cc3)c12	residual activity	96.6
CCN(CC)CCNC(=O)c1c(C)[nH]c(/C=C2\C(=O)Nc3ccc(F)cc32)c1C	residual activity	50.5
O=C1NC(=O)/C(=C/c2ccc3c(c2)OC(F)(F)O3)S1	residual activity	95.4
CCC(=O)Nc1ccc2ncnc(Nc3cccc(Br)c3)c2c1	residual activity	92.5
Nc1ncnc2c1c(-c1ccc(Oc3ccccc3)cc1)cn2C1CCCC1	residual activity	98.2
CC(C)N(CCC(=O)c1ccc2ccccc2c1)Cc1ccccc1	residual activity	96.8
COc1ccc2c(c[n+](C)c3c4cc5c(cc4ccc23)OCO5)c1OC	residual activity	103
N#CC(C#N)=C(N)/C(C#N)=C/c1ccc(O)cc1	residual activity	91.3
c1ccc(-c2n[nH]c3c2oc2ccccc23)cc1	residual activity	90.4
COc1ccc(COc2ccc(Cc3cnc(N)nc3N)cc2OC)cc1	residual activity	101
CC[n+]1c(/C=C/N(C)c2ccccc2)n(-c2ccccc2)c2ccc(-c3nc4ccccc4s3)cc21	residual activity	103
O=C1NC(=O)c2c1c1c3ccccc3n3c1c1c2c2ccccc2n1C1CCC3O1	residual activity	6.06
CNC(=O)c1cc(Oc2ccc(NC(=O)Nc3ccc(Cl)c(C(F)(F)F)c3)cc2)ccn1	residual activity	91.8
CC(=O)c1ccc(N2CCOCC2)cc1O	residual activity	99.3
CCN(CC)C(=O)c1ccc(Nc2nc(OCC3CCCCC3)c3nc[nH]c3n2)cc1	residual activity	52.9
O=C(Nc1cccc(Nc2nccc(Nc3cccc(C(F)(F)F)c3)n2)c1)C1CC1	residual activity	93.4
O=c1cc(N2CCOCC2)oc2c1ccc1ccccc12	residual activity	102
O=S(=O)(c1cccc2cnccc12)N1CCCNCC1	residual activity	86.4
Cc1ccc(Nc2nccc(N(C)c3ccc4c(C)n(C)nc4c3)n2)cc1S(N)(=O)=O	residual activity	96.5
CCOC(=O)c1c(C)[nH]c(/C=C2\C(=O)Nc3ccccc32)c1C	residual activity	89.7
CNc1cc2c(Nc3cccc(Br)c3)ncnc2cn1	residual activity	82.2
Cc1[nH]c(/C=C2\C(=O)Nc3ccc(S(=O)(=O)N(C)c4cccc(Cl)c4)cc32)c(C)c1C(=O)N1CCN(C)CC1	residual activity	84.8
Nc1ccc2ncnc(NCCc3ccc(Oc4ccccc4)cc3)c2c1	residual activity	101
Nc1cccc(-c2cc3c(Oc4cccc(O)c4)ncnc3[nH]2)c1	residual activity	82.2
CC#CC(=O)Nc1cc2c(Nc3ccc(F)c(Cl)c3)ncnc2cn1	residual activity	99

###

# residual activity per record follows
molecular target: CAMK2D (human) (UniProt Q13557); assay: radiometric filter-binding kinase assay, Kinase HotSpot; conditions: compound 0.5 µM; ATP 10 µM
Sequence (Q13557 whole entry, looked up): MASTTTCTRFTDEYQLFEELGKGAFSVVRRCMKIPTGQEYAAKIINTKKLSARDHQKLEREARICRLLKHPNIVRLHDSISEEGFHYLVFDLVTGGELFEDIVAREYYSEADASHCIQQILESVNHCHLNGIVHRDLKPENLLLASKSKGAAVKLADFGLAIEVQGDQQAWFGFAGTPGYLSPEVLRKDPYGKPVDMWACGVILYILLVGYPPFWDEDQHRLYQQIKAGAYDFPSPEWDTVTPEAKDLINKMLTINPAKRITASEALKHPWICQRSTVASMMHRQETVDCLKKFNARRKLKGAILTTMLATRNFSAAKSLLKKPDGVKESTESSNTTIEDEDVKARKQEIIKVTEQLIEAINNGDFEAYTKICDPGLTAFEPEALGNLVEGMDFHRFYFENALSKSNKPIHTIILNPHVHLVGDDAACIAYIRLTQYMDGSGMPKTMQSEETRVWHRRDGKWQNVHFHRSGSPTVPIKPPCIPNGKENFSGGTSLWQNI

compound	unitName	residual activity
O=S(=O)(c1cccc2cnccc12)N1CCCNCC1	%	98.5
N#CC(C#N)=C(N)/C(C#N)=C/c1ccc(O)cc1	%	91.1
O=C1Nc2ccc(Cl)cc2/C1=C/c1cc(Cl)c(O)c(Cl)c1	%	80.2
